biological target: T1, ICAM-1 protein antigen (R&D System) (human, UniProt P05362 28-480); test: ELISA, ICAM-1 coated 100 ng/well, anti-human Ig-HRP
T1 construct: The assay paragraphs say only 'ICAM-1 (R&D System)'; also called antigen ICAM-1; ICAM-1 antigen
T1 sequence (P05362 28-480 limits assumed): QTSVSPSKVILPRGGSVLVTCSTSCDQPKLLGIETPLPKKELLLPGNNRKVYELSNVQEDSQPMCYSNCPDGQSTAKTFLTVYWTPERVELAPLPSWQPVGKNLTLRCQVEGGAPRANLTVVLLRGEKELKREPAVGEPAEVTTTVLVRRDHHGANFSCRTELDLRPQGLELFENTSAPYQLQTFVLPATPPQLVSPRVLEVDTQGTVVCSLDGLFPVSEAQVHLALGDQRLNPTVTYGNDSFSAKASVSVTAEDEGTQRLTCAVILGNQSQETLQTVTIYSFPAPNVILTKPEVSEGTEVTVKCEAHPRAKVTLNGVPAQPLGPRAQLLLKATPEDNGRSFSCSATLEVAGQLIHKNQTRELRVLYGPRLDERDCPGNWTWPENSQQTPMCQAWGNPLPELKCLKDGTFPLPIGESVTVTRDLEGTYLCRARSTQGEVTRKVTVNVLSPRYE
readout.name: OD 450 nm at 5 ng/ml antibody

These recorded examples may help you get a feel for the data.
[[record]]
binder = "chimeric anti-ICAM-1 antibody SI9 (mouse SI9 variable regions, human IgG4/kappa constant regions) (antibody, the hinge lies in the heavy chain; also called chimeric antibody SI9; SI9 Chimeric; not shown: human IgG4 heavy chain constant region, GenBank AIC59040.1 (printed), hinge 'CPSCP' modified to 'CPPCP' (position not pr); human kappa light chain constant region, GenBank AAA58989.1 (printed)) heavy: QVQLQQSGAELVRPGVSVKISCKGSGYTFTDYALHWVKQSHAKSLEWIGVISTYSGNTDYNQKFRGKATMTVDKSSTTAYLELARLTSEDSAIHYCARSLYFGSSGFDYWGQGTALTVSS light: DVVLTQTPLSLPVNLGDQASISCRSSQTLVYRNGNTYLHWYLQKAGQSPKLLIYKVSNRFSGVPDRFSGSGSGTDFTLKISRVEAEDLGVYFCSQNTHFPYTFGGGTKIKR"
value_measured = "0.182 OD (450 nm)"

[[record]]
binder = "humanized anti-ICAM-1 antibody H17L3 (VH17 + VL3), human IgG4/kappa (antibody, V domains shown, The Arg at the VL/CL junction is in neither entry) VH: QVQLVQSGAEVKKPGASVKISCKGSGYTFTDYALHWVRQAPGQRLEWMGVISTYSGNTDYNQKFRGRATITVDTSASTAYMELSSLRSEDTAVYYCARSLYFGSSGFDYWGQGTALTVSS VL: DVVLTQTPLSSPVTLGQPASISCRSSQTLVYRNGNTYLHWYLQRAGQPPRLLIYKVSNRFSGVPDRFSGSGAGTDFTLKISRVEAEDVGVYFCSQNTHFPYTFGGGTKLEIKT"
value_measured = "0.201 OD (450 nm)"

[[record]]
binder = "humanized anti-ICAM-1 antibody H5L3 (VH5 + VL3), human IgG4/kappa (antibody, V domains shown, The Arg at the VL/CL junction is in neither entry) VH: QVQLVQSGAEVKKPGASVKISCKASGYTFTDYALHWVRQAPGQRLEWMGVISTYSGNTDYNQKFRGRVTITVDKSATTAYMELSSLRSEDTAVYYCARSLYFGSSGFDYWGQGTALTVSS VL: DVVLTQTPLSSPVTLGQPASISCRSSQTLVYRNGNTYLHWYLQRAGQPPRLLIYKVSNRFSGVPDRFSGSGAGTDFTLKISRVEAEDVGVYFCSQNTHFPYTFGGGTKLEIKT"
value_measured = "0.208 OD (450 nm)"

[[record]]
binder = "humanized anti-ICAM-1 antibody H17L1 (VH17 + VL1), human IgG4/kappa (antibody, V domains shown) VH: QVQLVQSGAEVKKPGASVKISCKGSGYTFTDYALHWVRQAPGQRLEWMGVISTYSGNTDYNQKFRGRATITVDTSASTAYMELSSLRSEDTAVYYCARSLYFGSSGFDYWGQGTALTVSS VL: DVVLTQSPLSLPVTLGQPASISCRSSQTLVYRNGNTYLHWYQQRPGQSPRLLIYKVSNRFSGVPDRFSGSGSGTDFTLKISRVEAEDVGVYFCSQNTHFPYTFGGGTKLEIKT"
value_measured = "0.186 OD (450 nm)"


# binder humanized anti-ICAM-1 antibody H4L3 (VH4 + VL3), human IgG4/kappa (antibody, V domains shown, The Arg at the VL/CL junction is in neither entry) VH: QVQLVQSGAEVKKPGASVKVSCKASGYTFTDYALHWVRQAPGQRLEWIGVISTYSGNTDYNQKFRGRVTMTRDTSATTAYLELSSLRSEDTAVYYCARSLYFGSSGFDYWGQGTALTVSS VL: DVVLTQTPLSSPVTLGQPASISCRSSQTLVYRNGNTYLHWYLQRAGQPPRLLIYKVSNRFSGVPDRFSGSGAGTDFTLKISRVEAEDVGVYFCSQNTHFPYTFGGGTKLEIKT ; its OD 450 nm at 5 ng/ml antibody = 0.189 OD (450 nm)

# binder humanized anti-ICAM-1 antibody H17L4 (VH17 + VL4), human IgG4/kappa (antibody, V domains shown, The Arg at the VL/CL junction is in neither entry; also called DNP007; DNP007 antibody (H17L4 antibody)) VH: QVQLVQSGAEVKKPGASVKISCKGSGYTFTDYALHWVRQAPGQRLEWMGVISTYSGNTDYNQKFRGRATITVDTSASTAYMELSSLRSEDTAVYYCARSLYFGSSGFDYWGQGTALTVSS VL: DVVLTQTPLSSPVTLGQPASISCRSSQTLVYRNGNTYLHWYQQRPGQPPRLLIYKVSNRFSGVPDRFSGSGAGTDFTLKISRVEAEDVGVYFCSQNTHFPYTFGGGTKLEIKT ; its OD 450 nm at 5 ng/ml antibody = 0.236 OD (450 nm)
